Recorded Regular Beta Sheet, one value per entry.
# studyTarget: BSA (Bos taurus, UniProt P02769)
# Construct: purchased Millipore Sigma-Aldrich
# Sequence (P02769 25-607): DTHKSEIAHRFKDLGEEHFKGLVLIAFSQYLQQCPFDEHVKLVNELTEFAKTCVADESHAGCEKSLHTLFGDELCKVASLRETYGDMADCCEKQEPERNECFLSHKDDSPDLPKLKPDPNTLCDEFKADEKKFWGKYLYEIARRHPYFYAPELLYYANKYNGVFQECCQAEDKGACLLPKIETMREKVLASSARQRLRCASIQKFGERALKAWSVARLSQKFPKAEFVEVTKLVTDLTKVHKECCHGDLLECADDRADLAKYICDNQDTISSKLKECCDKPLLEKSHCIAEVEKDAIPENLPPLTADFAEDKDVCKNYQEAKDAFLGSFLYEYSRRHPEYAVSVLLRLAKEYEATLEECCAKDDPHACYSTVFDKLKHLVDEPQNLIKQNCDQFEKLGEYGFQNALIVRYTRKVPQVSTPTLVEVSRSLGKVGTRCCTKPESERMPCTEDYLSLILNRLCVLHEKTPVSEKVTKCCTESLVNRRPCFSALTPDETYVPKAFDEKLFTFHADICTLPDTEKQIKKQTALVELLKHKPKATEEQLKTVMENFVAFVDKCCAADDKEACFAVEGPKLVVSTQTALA
# assayText: Far-UV CD secondary structure of BSA (CONTIN-LL deconvolution)
# Assay type: physicochemical, bovine
# Set-up: unit not given here
# conditionDetails: 1.0 mg/mL BSA, 5 mM component, 25 °C
Form rule: numeric answer, no unit written next to it.

C[N+](C)(C)CCO.O=S(=O)([O-])C(F)(F)C(F)(F)C(F)(F)C(F)(F)F [[N1112(OH)][C4F9SO3]] ... 0.000
C[N+](C)(C)CCO.C[N+](C)(C)CCO.O=P([O-])(O)O.O=P([O-])(O)O [[N1112(OH)][H2PO4]] ... 0.004
OC[C@H]1O[C@@](CO)(O[C@H]2O[C@H](CO)[C@@H](O)[C@H](O)[C@H]2O)[C@@H](O)[C@@H]1O ... 0.000

Field request: Regular Beta Sheet | item: CCn1cc[n+](C)c1.O=S(=O)([O-])C(F)(F)C(F)(F)C(F)(F)C(F)(F)F
0.007

Now the compound CCCCn1cc[n+](C)c1.O=S(=O)([O-])C(F)(F)F [[C4C1Im][CF3SO3]]
0.000
